Target: human MCH1 receptor (Homo sapiens, UniProt Q99705)
Sequence (Q99705 whole entry): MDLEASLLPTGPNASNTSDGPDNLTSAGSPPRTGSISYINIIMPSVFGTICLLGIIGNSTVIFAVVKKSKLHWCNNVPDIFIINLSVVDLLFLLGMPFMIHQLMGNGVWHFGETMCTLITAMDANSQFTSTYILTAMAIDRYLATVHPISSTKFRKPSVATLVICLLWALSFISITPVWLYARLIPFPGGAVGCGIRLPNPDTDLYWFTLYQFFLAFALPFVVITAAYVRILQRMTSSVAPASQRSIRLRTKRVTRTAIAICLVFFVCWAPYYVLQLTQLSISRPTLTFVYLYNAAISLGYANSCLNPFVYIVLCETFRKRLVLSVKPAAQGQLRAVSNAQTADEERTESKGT
Experiment: Competition binding, membrane preparations of A293 cells expressing the human MCH1 receptor, [3H] Compound 10 as radioligand
Set-up: expressed in transfected cells
Where a name gives a salt, the structure may show the parent alone.
We begin with a simple list: items and their reported Ki.

# compound, tested-system, Ki, nM
measured = [
    ("COC(=O)C1=C(C)NC(=O)N(C(=O)NCCCN2CCC3(CC2)OCc2ccccc23)C1c1ccc2nonc2c1 (single isomer, unassigned) [Example 18, HYDROCHLORIDE]", "human MCH1 receptor (Homo sapiens, UniProt Q99705)", 4),
    ("COC(=O)C1=C(C)NC(=O)N(C(=O)NCCCN2CCC3(CC2)OCc2ccccc23)C1c1ccc(F)c(F)c1 (stereo not drawn)", "human MCH1 receptor (Homo sapiens, UniProt Q99705)", 6),
    ("O=C(CCCN1CCC(O)(c2ccc(Cl)cc2)CC1)c1ccc(Cl)cc1", "human MCH1 receptor (Homo sapiens, UniProt Q99705)", 350),
]

* * *

Target: human NPY5 receptor (Homo sapiens)
Construct: expressed in transfected cells
Sequence (Q15761 1-445): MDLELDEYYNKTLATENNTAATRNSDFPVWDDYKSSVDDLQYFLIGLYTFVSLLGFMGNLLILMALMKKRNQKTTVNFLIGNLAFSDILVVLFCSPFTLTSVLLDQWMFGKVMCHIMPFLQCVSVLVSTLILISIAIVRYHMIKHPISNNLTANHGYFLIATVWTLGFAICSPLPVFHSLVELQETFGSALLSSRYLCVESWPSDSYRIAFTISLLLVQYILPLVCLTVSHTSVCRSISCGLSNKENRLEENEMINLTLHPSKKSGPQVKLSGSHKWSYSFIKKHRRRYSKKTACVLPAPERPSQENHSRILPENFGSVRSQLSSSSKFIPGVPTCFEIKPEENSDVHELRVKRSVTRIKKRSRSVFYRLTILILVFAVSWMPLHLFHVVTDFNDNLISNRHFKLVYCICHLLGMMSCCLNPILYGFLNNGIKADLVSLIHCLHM
Test: Binding affinity at the human NPY5 receptor
Conditions: read-out: hNPY5 Ki; Table 3b
Structures can show the parent of a compound that is named as a salt.

# compound, tested-system, Ki
measured = [
    ("COC(=O)C1=C(C)NC(=O)N(C(=O)NCCCN2CCC3(CC2)OCc2ccccc23)C1c1ccc(F)c(F)c1 (stereo not drawn)", "human NPY5 receptor (Homo sapiens)", "> 50 µM"),
    ("COC(=O)C1=C(C)NC(=O)N(C(=O)NCCCN2CCC3(CC2)OCc2ccccc23)C1c1ccc2nonc2c1 (single isomer, unassigned) [Example 18, HYDROCHLORIDE]", "human NPY5 receptor (Homo sapiens)", "> 50 µM"),
    ("O=C(CCCN1CCC(O)(c2ccc(Cl)cc2)CC1)c1ccc(Cl)cc1", "human NPY5 receptor (Homo sapiens)", "46.1 µM"),
]

* * *

Target: rat MCH1 receptor (Rattus norvegicus)
Construct: expressed in transfected cells
Sequence (P97639 whole entry): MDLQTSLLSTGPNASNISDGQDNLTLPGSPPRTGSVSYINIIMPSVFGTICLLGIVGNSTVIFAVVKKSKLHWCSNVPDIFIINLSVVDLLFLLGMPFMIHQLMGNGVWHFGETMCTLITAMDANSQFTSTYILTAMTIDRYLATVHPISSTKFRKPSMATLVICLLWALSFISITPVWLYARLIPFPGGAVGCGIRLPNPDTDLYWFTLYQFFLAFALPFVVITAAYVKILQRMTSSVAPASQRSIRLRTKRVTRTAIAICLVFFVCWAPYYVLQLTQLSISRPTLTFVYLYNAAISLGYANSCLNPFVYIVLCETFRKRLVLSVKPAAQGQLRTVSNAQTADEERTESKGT
Assay: Binding affinity (Ki) at the rat MCH1 receptor
Details: Examples 38-141; read-out: Ki (nM) rMCH1
Field 'label' (enum: YES / NO). Set to YES when Ki is strictly under 30 nM; else NO.

# test-smiles, label-value
rows = [
    ("COc1ccc(C(=O)CCCN2CCC(c3cccc(NC(=O)C(C)C)c3)CC2)c(OC)c1", "NO"),
    ("CC(=O)Nc1cccc(C2CCN(CCCNC(=O)N3C(=O)OC[C@@H]3c3cc(F)cc(F)c3)CC2)c1", "NO"),
    ("CS(=O)(=O)Nc1cccc(C2CCN(CCCC(=O)c3ccc(Cl)cc3)CC2)c1", "NO"),
    ("COc1ccc(O[C@@H](CCN2CCC(c3cccc(NC(=O)C(C)C)c3)CC2)c2ccccc2)cc1", "YES"),
    ("CC(C)C(=O)Nc1cccc(C2CCN(CC[C@H](Oc3ccc(Br)cc3)c3ccccc3)CC2)c1", "YES"),
    ("COCC1=C(C(=O)NCCCN2CCC(c3cccc(NC(=O)C(C)C)c3)CC2)[C@@H](c2ccc(F)c(F)c2)NC(=O)N1", "YES"),
    ("CC(=O)c1cccc(O[C@@H](CCN2CCC(c3cccc(NC(=O)C(C)C)c3)CC2)c2ccccc2)c1", "YES"),
]

The values you see were collected from patent US20040038855A1.
